Tested on: DU-145 prostate
Assay: NCI-60 one-dose screen, 48 h
Conditions: 10 µM unless noted
Method: Cells are grown in 96 well plates and exposed to the test compound for 48 hours. Compounds are tested at a single concentration, which is 10^-5 M for most compounds. The reported endpoint is percent growth (GI% or GIPRCNT), where numbers from 0 - 100% represent growth inhibition, and numbers from -100% - 0 represent cell death. For example, a value of 40 represents 60% growth inhibition. A value of 0 means no net growth occurred over the course of the experiment. […]
About 83,000 compounds went through this panel and 20% of them were active in at least one assay; those are over-represented in the sample as a whole. Activity calls are given as the source filed them. How the source made its calls: active means growth percent below 10; inactive means the rest.
Outcomes: active, inactive

compound="CCN(CC)CCCC(C)Nc1c(C)cnc2cc(Cl)c(C)cc12 (centres undefined)" label_value=inactive
compound=COc1ccc(-c2nc(SCC(C)C)nc(Nc3ccc(C(=O)O)cc3)c2C#N)cc1 label_value=inactive
compound="C/C=C(/C)C(=O)OC1C=C(CO)C(=O)C(OC(=O)/C(C)=C\\C)C1C(C)C (centres undefined)" label_value=active
compound=COc1ccc(-c2nc(SCC(C)C)nc(Nc3ccc(C)cc3)c2C#N)cc1 label_value=inactive
compound="COc1cc2c(c(OC)c1OC)C(=O)CC(c1cccc(C(=O)Nc3cccc(Br)c3)c1)O2 (centres undefined)" label_value=inactive
compound=CC(=O)NCCN label_value=inactive
compound="COc1ccc(C2CC(=O)c3c(O)cc(OC4OC(COC5OC(C)C(O)C(O)C5O)C(O)C(O)C4O)cc3O2)cc1O (centres undefined)" label_value=inactive
compound=CCCOC(=O)c1c(C)n(C)c2scc[n+]12 label_value=inactive
compound=CC1=C(C)C(=O)C(C(C)C2=C(C)C(=O)C(C)=C(C)C2=O)=C(C)C1=O label_value=inactive

====

system: M14 melanoma; experiment: NCI-60 one-dose screen, 48 h (100 = growth as untreated, 0 = no growth, -100 = all killed); conditions: 10 µM unless noted
About 83,000 compounds went through this panel and 20% of them were active in at least one assay; those are over-represented in the sample as a whole.
Output rule met for growth not less than 80%; output rule not met otherwise.

compound=N=C(N)N=Nc1ccc(NN=C(N)N)c2ccccc12 label_value="rule not met"
compound=COc1ccc2cn3c4ccc(O)cc4[nH]c(=O)c3c2c1 label_value="rule not met"
compound=COc1ccc2sc(-n3nc4nc5n(c(=O)c4c3N)-c3ccccc3Sc3ccccc3-5)nc2c1 label_value="rule not met"
compound=C/C(=N\Nc1ccc(Cl)cn1)c1ccc2ccccc2n1 label_value="rule not met"
compound="O=C1C(Br)=CC2C1C1C3CCC3C2(Br)C12OCCO2 (stereo not drawn)" label_value="rule not met"
compound="CCC1(CC)C(OC)NC(Br)=C(C#N)C1(C#N)C(N)=O (stereo not drawn)" label_value="rule not met"
compound=O=C(/C=C/c1c[nH]c2ccccc12)c1cc2ccccc2o1 label_value="rule met"
compound=O=C1c2ccccc2CCc2ccccc21 label_value="rule met"
compound="CCOC(=O)C(C)C(C)(O)c1ccccc1 (stereo not drawn)" label_value="rule met"
compound=O=C(/C=C\c1ccccc1Cl)c1ccccc1 label_value="rule met"
compound=CC[N+](C)(C)N label_value="rule met"
compound="COc1ccc(C(=O)N2N=C(c3ccc(Br)cc3)CC2c2cn(-c3ccccc3)nc2-c2ccccc2)cc1 (stereo not drawn)" label_value="rule not met"
compound=COc1ccc(-c2nc(N)n(C(=S)Nc3ccccc3)n2)cc1 label_value="rule met"
